Consider the following molecules and their measured GI50 readings.
Test system: OVCAR-8
measurement-description: NCI tumour cell line growth inhibition, 48 h
Calls of active or inactive are those of the source. Rule as the data show it: active = GI50 up to about 1.1 µM and inactive = higher. Numbered stars: 1 amine (or outer) side, 2 acyl side, 3 side chain; on linkers, the order of the positions; unused ones are H or OH. Bridge positions count the residues as written; N and C are the ends. Square brackets hold non-standard residues; d marks the D form. Peptide text beside a SMILES is read from it. X58 = COc1c(N[*:1])cccc1C(=O)O[C@H](C(=O)[C@H](C)C(=O)[*:2])C(C)C; X57 = CC(C)C[C@H](C(=O)[*:2])C(C)C(=O)C1CCCN1[*:1]; NMeY = CN[C@@H](Cc1ccc(O)cc1)C(=O)O; Lac = C[C@H](O)C(=O)O

Below: 5 molecules and their reported GI50.
molecule	reading
Nc1ncnc2c1nc(-c1ccccc1)n2C1OC(CO)C(O)C1O (stereo not drawn)	> 100 µM (inactive)
COC(C)(C)CCc1[nH]c2ccccc2c1CC(=O)NCCc1cncn1C	> 100 µM (inactive)
[N-]=[N+]=NC(CCl)c1cn([C@H]2C[C@H](O)[C@@H](CO)O2)c(=O)[nH]c1=O (stereo partly drawn)	> 100 µM (inactive)
CC(=O)c1c2c(cc3c1CC1(Cc4cc5c(cc4C1)CCCC5)C3)CCCC2	> 100 µM (inactive)
C(=C\c1cc(CCc2nc3ccccc3[nH]2)n[nH]1)/c1ccccc1	> 100 µM (inactive)

Reported GI50 for CCCCCCCCCCCCOC(=S)NC was 18.6 µM (inactive)

Just so you know, measured GI50 for COc1ccc(C[C@H]2C(=O)O[C@H](C)[C@H](NC(=O)[C@@H](CC(C)C)C(C)C(=O)C3CCCN3C(=O)[C@H](C)O)C(=O)Nc3cccc(c3OC)C(=O)O[C@@H](C(C)C)C(=O)[C@H](C)C(=O)N[C@@H](CC(C)C)C(=O)N3CCC[C@H]3C(=O)N2C)cc1 (stereo partly drawn) (H-[Lac][X57]T[X58]LP[NMeY](Me); ester 3-C) came out at > 12.5 µM (inactive)

GI50 in this record for S=c1sc2c(Cl)ncnc2n1-c1ccccc1 : 16.1 µM (inactive)
